tested on: 786-0 renal; test: NCI tumour cell line growth inhibition, 48 h
So I've got a bunch of molecules here, and I need their TGI values.

// known answers, use as guide
### Prompt Return TGI (reported value) for this molecule: "N#Cc1ncc(-c2ccc(C(F)(F)F)cc2)c(NC2CCCCCC2)n1"
### Response > 100 µM

### Prompt Answer with reported TGI of "CCNCCS(=O)(=O)NC[C@@]1(c2ccccc2)SC(NC(=O)C(C)(C)C)=NN1C(=O)C(C)(C)C"
### Response > 100 µM

### Prompt Write down TGI measured for item "Cc1ncnc2c1ccn2[C@@H]1C[C@H](Oc2cc(C(F)F)c(F)c3c2CNCC3)[C@@H](O)[C@H]1O"
### Response > 100 µM

### Prompt Name the recorded TGI of the molecule listed here: CC(=O)CCC[C@@H](C)[C@@H]1O[C@H]([C@@]2(C)CCC(=O)O2)CC2[C@H]1OC(=O)C21CC1 (stereo partly drawn)
### Response > 100 µM

### Prompt Give recorded TGI. "c1ccc(CN2C3C4N(Cc5ccccc5)C2C2N(Cc5ccccc5)C(C(N2Cc2ccccc2)N4Cc2ccccc2)N3Cc2ccccc2)cc1"
### Response > 100 µM

Provide TGI values for the following items, in order.
1. C/C(=C\CNc1ncnc2c1ncn2C1CCCCO1)COP(=O)(O)O (stereo not drawn)
2. CN(C)CCNc1ncnc2nc(-c3ccccc3)c(-c3ccccc3)nc12
3. N#CC(Cl)CS(=O)(=O)c1ccccc1 (stereo not drawn)
4. COc1ccc(NC(=O)CSc2nc(C)nc3c2sc(=S)n3-c2ccccc2)cc1
5. CC(=O)OC1CCn2c1nc1c2C(=O)C=C(N2CC2)C1=O (stereo not drawn)
6. COc1ccc(NCc2cccc3c(=O)c4ccc(Cl)cc4oc23)cc1

### Response
["> 100 µM", "> 100 µM", "30.5 µM", "> 10 µM", "0.557 µM", "> 100 µM"]

* * *

system: HS 578T breast; assay: NCI tumour cell line growth inhibition, 48 h
QUANTITY_MEASURED: TGI

### Prompt Report TGI, nothing else, for this compound: "CCc1nc(N)nc(N)c1-c1ccc(N2CCNCC2)c([N+](=O)[O-])c1"
### Response > 74.2 µM

### Prompt Give TGI for "CN(C)CCNc1ncnc2nc(-c3ccccc3)c(-c3ccccc3)nc12"
### Response > 100 µM

### Prompt Give the value of TGI reported for the following: "O=c1c2c3c(sc2nc2n1sc1nc4sc5c(c4c(=O)n12)CCCC5)CCCC3"
### Response > 100 µM

### Prompt Name the recorded TGI of the item "O=C(O[C@H](/C=C/c1ccccc1)P1(=O)N(Cc2ccccc2)[C@H]2CCCC[C@@H]2N1Cc1ccccc1)c1ccccc1" in your answer.
### Response > 100 µM

Consider the following items and state reported TGI for each.
1. CN(C)C/C=C/C(=O)Nc1ccc(C(=O)Nc2cccc(Nc3ncc(Cl)c(-c4c[nH]c5ccccc45)n3)c2)cc1
2. CCCCNC(=O)CC1=C(C)/C(=C/c2[nH]c(-c3ccc[nH]3)cc2OC)N=C1C
3. O=C1CC(=O)NC(=NN2C(=O)CSC2c2ccc(Cl)cc2)N1 (centres undefined)
4. CCOC(=O)/C1=C(\C)N(Cc2ccccc2)C(=O)c2ccccc2C(=O)c2c(OC(C)=O)ccc(OC(C)=O)c21
5. O=C(Nc1nc2ccc(OC(F)(F)F)cc2s1)c1ccc(F)cc1

### Response
0.195 µM
9.11 µM
> 100 µM
> 100 µM
> 100 µM
